Biological target: DNA topoisomerase 2-beta (Homo sapiens)
Assay: Inhibition of recombinant human topoisomerase-2beta expressed in Saccharomyces cerevisiae assessed as increase in single-stranded DNA cleavage at 25 uM using supercoiled pBR322 DNA as substrate incubated for 6 mins measured after 30 mins by ethidium bromide staining based agarose gel electrophoresis method relative to etoposide
Experimental readout: fold change (FC)

COc1cc([C@@H]2c3cc4c(cc3[C@@H](NC(=O)CNCCCNCCCNCCCN)[C@H]3COC(=O)[C@H]23)OCO4)cc(OC)c1O 2.21
COc1cc([C@@H]2c3cc4c(cc3[C@@H](NC(=O)CNCCCNCCCCNCCCN)[C@H]3COC(=O)[C@H]23)OCO4)cc(OC)c1O 2.68
COc1cc([C@@H]2c3cc4c(cc3[C@@H](NC(=O)CNCCCOCCCCOCCCN)[C@H]3COC(=O)[C@H]23)OCO4)cc(OC)c1O 3.63
CNCCCNCCCCNCCCNCC(=O)N[C@@H]1c2cc3c(cc2[C@@H](c2cc(OC)c(O)c(OC)c2)[C@H]2C(=O)OC[C@@H]21)OCO3 2.61
COc1cc([C@@H]2c3cc4c(cc3[C@@H](NC(=O)CNCCCNCCCCN)[C@H]3COC(=O)[C@H]23)OCO4)cc(OC)c1O 4.92
COc1cc([C@@H]2c3cc4c(cc3[C@@H](NC(=O)CNCCCNCCNCCCN)[C@H]3COC(=O)[C@H]23)OCO4)cc(OC)c1O 4.27

====

Target: DNA topoisomerase 2-beta (Homo sapiens)
Experiment: Inhibition of recombinant human topoisomerase-2beta expressed in Saccharomyces cerevisiae assessed as increase in double-stranded DNA cleavage at 25 uM using supercoiled pBR322 DNA as substrate incubated for 6 mins measured after 30 mins by ethidium bromide staining based agarose gel electrophoresis method relative to etoposide
fold change (FC) overview
Experimental readout: fold change (FC)

COc1cc([C@@H]2c3cc4c(cc3[C@@H](NC(=O)CNCCCNCCCCN)[C@H]3COC(=O)[C@H]23)OCO4)cc(OC)c1O 7.69
COc1cc([C@@H]2c3cc4c(cc3[C@@H](NC(=O)CNCCCOCCCCOCCCN)[C@H]3COC(=O)[C@H]23)OCO4)cc(OC)c1O 2.9
COc1cc([C@@H]2c3cc4c(cc3[C@@H](NC(=O)CNCCCNCCCCNCCCN)[C@H]3COC(=O)[C@H]23)OCO4)cc(OC)c1O 10.3
COc1cc([C@@H]2c3cc4c(cc3[C@@H](NC(=O)CNCCCNCCNCCCN)[C@H]3COC(=O)[C@H]23)OCO4)cc(OC)c1O 4.66
COc1cc([C@@H]2c3cc4c(cc3[C@@H](NC(=O)CNCCCNCCCNCCCN)[C@H]3COC(=O)[C@H]23)OCO4)cc(OC)c1O 7.85
CNCCCNCCCCNCCCNCC(=O)N[C@@H]1c2cc3c(cc2[C@@H](c2cc(OC)c(O)c(OC)c2)[C@H]2C(=O)OC[C@@H]21)OCO3 8.36

====

Biological target: DNA topoisomerase 2-alpha (Homo sapiens) (UniProt P11388)
Sequence (P11388 whole entry): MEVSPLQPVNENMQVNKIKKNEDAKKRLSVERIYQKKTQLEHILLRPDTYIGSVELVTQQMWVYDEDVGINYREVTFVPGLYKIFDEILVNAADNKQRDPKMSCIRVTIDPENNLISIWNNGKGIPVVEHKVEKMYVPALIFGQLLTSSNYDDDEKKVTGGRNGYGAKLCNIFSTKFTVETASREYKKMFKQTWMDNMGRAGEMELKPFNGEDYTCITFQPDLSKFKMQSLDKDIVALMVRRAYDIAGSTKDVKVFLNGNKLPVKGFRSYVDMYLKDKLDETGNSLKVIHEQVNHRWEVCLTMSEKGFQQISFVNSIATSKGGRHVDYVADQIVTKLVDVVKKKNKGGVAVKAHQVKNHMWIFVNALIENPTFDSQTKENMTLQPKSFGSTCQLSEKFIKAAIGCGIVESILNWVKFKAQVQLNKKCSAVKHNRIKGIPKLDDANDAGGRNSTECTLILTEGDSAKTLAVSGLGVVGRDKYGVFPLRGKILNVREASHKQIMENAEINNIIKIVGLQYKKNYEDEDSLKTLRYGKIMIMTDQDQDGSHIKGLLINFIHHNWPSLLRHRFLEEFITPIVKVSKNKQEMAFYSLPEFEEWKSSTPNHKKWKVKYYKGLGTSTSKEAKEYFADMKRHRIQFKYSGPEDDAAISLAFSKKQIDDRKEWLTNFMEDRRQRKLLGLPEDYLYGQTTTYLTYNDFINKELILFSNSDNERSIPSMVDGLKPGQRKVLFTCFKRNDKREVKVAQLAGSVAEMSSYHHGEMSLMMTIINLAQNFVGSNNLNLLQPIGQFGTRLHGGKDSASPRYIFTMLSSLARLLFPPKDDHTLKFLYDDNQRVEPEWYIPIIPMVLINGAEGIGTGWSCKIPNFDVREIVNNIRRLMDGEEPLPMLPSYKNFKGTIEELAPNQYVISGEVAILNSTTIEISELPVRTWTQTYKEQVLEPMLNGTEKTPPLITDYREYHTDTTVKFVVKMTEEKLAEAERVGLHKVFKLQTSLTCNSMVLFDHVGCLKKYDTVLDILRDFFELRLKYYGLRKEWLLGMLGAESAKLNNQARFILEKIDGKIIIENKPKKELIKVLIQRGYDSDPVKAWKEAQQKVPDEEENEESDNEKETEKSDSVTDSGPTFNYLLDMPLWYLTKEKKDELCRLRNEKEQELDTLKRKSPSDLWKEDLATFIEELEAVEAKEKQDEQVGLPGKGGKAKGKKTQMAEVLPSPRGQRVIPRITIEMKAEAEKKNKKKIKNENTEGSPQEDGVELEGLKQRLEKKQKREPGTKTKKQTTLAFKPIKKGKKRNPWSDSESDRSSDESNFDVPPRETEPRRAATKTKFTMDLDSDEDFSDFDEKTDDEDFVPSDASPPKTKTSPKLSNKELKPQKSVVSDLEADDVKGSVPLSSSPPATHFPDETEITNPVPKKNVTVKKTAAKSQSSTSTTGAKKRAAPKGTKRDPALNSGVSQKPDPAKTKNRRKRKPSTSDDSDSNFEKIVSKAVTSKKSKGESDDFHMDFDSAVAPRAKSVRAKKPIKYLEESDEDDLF
Test: Poison activity at recombinant human topoisomerase-2alpha expressed in Saccharomyces cerevisiae assessed as stabilization of DNA-enzyme cleavage complex by measuring concentration required to generate 10% double-stranded DNA breaks using supercoiled pBR322 DNA as substrate incubated for 6 mins measured after 30 mins by ethidium bromide staining based agarose gel electrophoresis method
Experimental readout: log10(Activity) (log10 of the value in µM)

CNCCCNCCCCNCCCNCC(=O)N[C@@H]1c2cc3c(cc2[C@@H](c2cc(OC)c(O)c(OC)c2)[C@H]2C(=O)OC[C@@H]21)OCO3 1.12
COc1cc([C@@H]2c3cc4c(cc3[C@@H](NC(=O)CNCCCOCCCCOCCCN)[C@H]3COC(=O)[C@H]23)OCO4)cc(OC)c1O 2.00
COc1cc([C@@H]2c3cc4c(cc3[C@@H](NC(=O)CNCCCNCCNCCCN)[C@H]3COC(=O)[C@H]23)OCO4)cc(OC)c1O 1.31
COc1cc([C@@H]2c3cc4c(cc3[C@@H](NC(=O)CNCCCNCCCCN)[C@H]3COC(=O)[C@H]23)OCO4)cc(OC)c1O 1.73
COc1cc([C@@H]2c3cc4c(cc3[C@@H](NC(=O)CNCCCNCCCNCCCN)[C@H]3COC(=O)[C@H]23)OCO4)cc(OC)c1O 1.09
COc1cc([C@@H]2c3cc4c(cc3[C@@H](NC(=O)CNCCCNCCCCNCCCN)[C@H]3COC(=O)[C@H]23)OCO4)cc(OC)c1O 0.68
